# Tested on: Escherichia coli TOP10;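 note: peptides expressed intracellularly from a pBAD plasmid library in pooled LB shake-flask culture, induced with 0.3% L-arabinose, DNA abundance read by NGS, three biological replicates, DESeq2 with apeglm shrinkage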
# experiment.description: shrunken log2 fold change of peptide-encoding DNA abundance (4.5 h post-induction vs induction); higher = less antimicrobial activity (less host growth inhibition)
# condition.parameters: time post-induction: 4.5 h; library: site-saturation at positions 5, 18, 19, 20
Reported shrunken log2 fold change values follow for various sequences
No unit in the answer, please; the number alone is enough.

- sequence.record: "RRIRIRPPRLPRPRPRPETFPRP"
  shrunken log2 fold change: -0.202
- sequence.record: "RRIRARPPRLPRPRPRPNKNPRP"
  shrunken log2 fold change: 0.0222
- sequence.record: "RRIRERPPRLPRPRPRPMQVPRP"
  shrunken log2 fold change: -0.32
- sequence.record: "RRIRCRPPRLPRPRPRPPLDPRP"
  shrunken log2 fold change: 0.616
- sequence.record: "RRIRYRPPRLPRPRPRPWVYPRP"
  shrunken log2 fold change: -0.234
- sequence.record: "RRIRSRPPRLPRPRPRPKFIPRP"
  shrunken log2 fold change: -0.482
- sequence.record: "RRIRKRPPRLPRPRPRPMYSPRP"
  shrunken log2 fold change: -0.11
- sequence.record: "RRIRHRPPRLPRPRPRPLLNPRP"
  shrunken log2 fold change: -0.443
- sequence.record: "RRIRHRPPRLPRPRPRPCVRPRP"
  shrunken log2 fold change: -0.504
- sequence.record: "RRIRCRPPRLPRPRPRPCVYPRP"
  shrunken log2 fold change: -0.411

[Q] Tell me measured shrunken log2 fold change for RRIRGRPPRLPRPRPRPMEVPRP please.
[A] -0.121

[Q] Tell me measured shrunken log2 fold change for RRIRSRPPRLPRPRPRPYMVPRP please.
[A] -0.497

[Q] Tell me measured shrunken log2 fold change for RRIRHRPPRLPRPRPRPWEPPRP please.
[A] -0.0767
